All figures here come from paper PMC8253137.

- target: PHD2_181-402 (Homo sapiens)
- assayDetails: PHD2_181-402 inhibition assay (bioluminescent succinate detection, Succinate-Glo)
- Assay type: biochemical
- condition: relative to butyrate true IC50
Assignment: determine reported fold less effective at inhibiting PHD2_181-402 (compared to butyrate) for the given molecules.

-- ask Name the reported fold less effective at inhibiting PHD2_181-402 (compared to butyrate) value associated with the molecule CC(=O)O [Acetate]
-- reply ~ 10 fold

-- ask CCCCCC(=O)O [Hexanoate] ?
-- reply ~ 3 fold

-- ask CCCCC(=O)O [Valerate] ?
-- reply ~ 3 fold

-- ask CCC(=O)O [Propionate] ?
-- reply ~ 10 fold

----------
- target: PHD2_181-402 (Homo sapiens)
- assayDetails: PHD2_181-402 inhibition assay (bioluminescent succinate detection, Succinate-Glo)
- Type: biochemical
- condition: 1 μM PHD2_181-402, 10 μM 2-OG, 10 μM Fe(II), 10 μM HIF-1α547-581 peptide, 100 μM ascorbic acid, 10-minute reaction; calculated from measured IC50 accounting for substrate conversion; error SEM; read-out: True IC50
measuredMetric: IC50
State the value, then name its unit.

-- ask Return IC50 measured with PHD2_181-402 (Homo sapiens) given this molecule: CC(O)CC(=O)O (centres unmarked) [3-Hydroxybutyrate]
-- reply 14 mM

-- ask CCC(=O)O [Propionate] ?
-- reply 60 mM

-- ask COC(=O)CNC(=O)C(=O)OC [DMOG, dimethyloxalylglycine, reference compound] ?
-- reply 1.9 mM

-- ask CC(=O)O [Acetate] ?
-- reply 50 mM

-- ask CCC(CC)C(=O)O [2-Ethylbutyrate] ?
-- reply 77 mM

----------
- target: PHD2_181-402 (Homo sapiens, UniProt Q9GZT9)
- Sequence (Q9GZT9 181-402): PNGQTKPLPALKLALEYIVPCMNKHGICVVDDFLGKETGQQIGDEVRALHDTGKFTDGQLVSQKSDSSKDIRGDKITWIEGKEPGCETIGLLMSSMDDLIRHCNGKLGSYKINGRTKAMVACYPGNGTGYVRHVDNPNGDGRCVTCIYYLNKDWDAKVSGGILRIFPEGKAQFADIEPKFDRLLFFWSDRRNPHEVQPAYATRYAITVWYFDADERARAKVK
- assayDetails: WaterLOGSY 1D NMR binding
- condition: 10 mM ligand, 25 μM PHD2_181-402
measuredMetric: binding to PHD2_181-402 (WaterLOGSY signal)

>  <compound>
CC(=O)O [Acetate]

>  <measuredResult>
no binding

$$$$
>  <compound>
CCCCC(=O)O [Valerate]

>  <measuredResult>
no binding

$$$$
>  <compound>
CCC(=O)O [Propionate]

>  <measuredResult>
no binding

$$$$
